Molecular target: Cytochrome P450 2D6 (Homo sapiens, UniProt P10635)
Sequence (P10635 whole entry): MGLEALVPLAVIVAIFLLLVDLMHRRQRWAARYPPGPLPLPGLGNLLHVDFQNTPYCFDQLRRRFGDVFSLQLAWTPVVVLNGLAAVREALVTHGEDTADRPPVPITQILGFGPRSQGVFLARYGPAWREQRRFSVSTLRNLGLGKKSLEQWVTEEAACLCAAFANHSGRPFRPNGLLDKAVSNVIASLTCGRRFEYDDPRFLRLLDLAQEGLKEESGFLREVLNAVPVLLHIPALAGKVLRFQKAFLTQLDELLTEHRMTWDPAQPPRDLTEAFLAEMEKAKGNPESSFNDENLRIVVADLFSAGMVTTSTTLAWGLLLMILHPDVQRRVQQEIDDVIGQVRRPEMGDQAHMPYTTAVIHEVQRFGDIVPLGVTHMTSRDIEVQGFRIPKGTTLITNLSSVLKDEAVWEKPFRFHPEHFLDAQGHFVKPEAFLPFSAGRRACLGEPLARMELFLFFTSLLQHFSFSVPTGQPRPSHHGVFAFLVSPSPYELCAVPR
attribute.measured: IC50

Return reported IC50; argument: C[C@H](NC(=O)[C@H]1CCCCN1CCOc1ccccc1)c1ccc(C(=O)O)cc1.Cl
> 10 µM

====

Experiment: Oral bioavailability in Beagle dog at 10 mg/kg
Format: ADME, organism-based, Canis lupus familiaris
Details: in vivo
attribute.measured: bioavailability
Units required after the number.

Return reported bioavailability; argument: C[C@H](NC(=O)[C@H]1CCCCN1CCOc1ccccc1)c1ccc(C(=O)O)cc1.Cl
81%

====

Target: L-type calcium channel verapamil binding site (Homo sapiens, UniProt O60840+Q01668+Q13698+Q13936)
Test: Inhibition of L-type calcium channel verapamil binding site (unknown origin) at 10 uM relative to control
Assay type: protein assay
attribute.measured: inhibition at 10 µM (%)
Answers are plain numbers, in %.

Return reported inhibition at 10 µM; argument: C[C@H](NC(=O)[C@H]1CCCCN1CCOc1ccccc1)c1ccc(C(=O)O)cc1.Cl
5

Values compiled from ChEMBL document CHEMBL3600314.
